Reference source: the supplement of paper PMC3334620

# target-of-assay: Zap1 (UniProt P47043)
# Sequence: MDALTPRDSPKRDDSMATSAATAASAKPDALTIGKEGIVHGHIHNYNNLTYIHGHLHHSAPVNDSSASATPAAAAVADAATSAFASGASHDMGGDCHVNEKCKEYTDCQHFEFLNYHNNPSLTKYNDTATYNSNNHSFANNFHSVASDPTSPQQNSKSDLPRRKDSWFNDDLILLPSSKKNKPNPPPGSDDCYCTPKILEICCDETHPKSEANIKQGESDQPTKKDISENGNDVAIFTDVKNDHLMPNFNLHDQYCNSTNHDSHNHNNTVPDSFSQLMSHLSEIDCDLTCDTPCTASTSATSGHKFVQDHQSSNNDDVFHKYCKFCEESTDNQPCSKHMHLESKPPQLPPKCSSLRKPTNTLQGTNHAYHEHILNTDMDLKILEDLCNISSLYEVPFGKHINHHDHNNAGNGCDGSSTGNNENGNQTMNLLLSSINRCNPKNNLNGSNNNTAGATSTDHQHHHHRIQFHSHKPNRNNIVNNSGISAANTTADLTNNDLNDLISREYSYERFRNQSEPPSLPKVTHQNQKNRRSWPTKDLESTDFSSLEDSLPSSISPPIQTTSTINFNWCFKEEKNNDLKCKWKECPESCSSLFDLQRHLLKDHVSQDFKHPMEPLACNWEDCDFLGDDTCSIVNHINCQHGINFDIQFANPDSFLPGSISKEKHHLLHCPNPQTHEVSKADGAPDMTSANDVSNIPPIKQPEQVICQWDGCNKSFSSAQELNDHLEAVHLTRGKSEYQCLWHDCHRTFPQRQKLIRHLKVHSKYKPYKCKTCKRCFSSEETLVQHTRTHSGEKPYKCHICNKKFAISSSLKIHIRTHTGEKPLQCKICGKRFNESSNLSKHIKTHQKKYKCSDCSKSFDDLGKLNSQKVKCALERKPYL
# assay-text: PBM E-score (8-mer binding enrichment) (E-score (-0.5 to 0.5)); higher = stronger / more preferred TF binding
# condition-details: protein concentration: 200 nM; construct: GST-full length
The full ranking holds about 33,000 sequences; the median of “E-score (-0.5 to 0.5)” is about -0.021, and the highest 2% start at about 0.32. The list comes from a sample in which the highest values are over-represented; it also holds close analogues and randomly drawn sequences.
quantity-name: PBM E-score

[[record]]
chain_sequence = "ATGACCCC"
quantity_name = "PBM E-score"
test_result = 0.385

[[record]]
chain_sequence = "GAGTAACA"
quantity_name = "PBM E-score"
test_result = 0.135

[[record]]
chain_sequence = "ATGACCGC"
quantity_name = "PBM E-score"
test_result = 0.302

[[record]]
chain_sequence = "GCCACTAC"
quantity_name = "PBM E-score"
test_result = -0.0479


====

As shown below, each of these sequences has a reported PBM E-score value.
# target-of-assay: Zap1 (UniProt P47043)
# Sequence: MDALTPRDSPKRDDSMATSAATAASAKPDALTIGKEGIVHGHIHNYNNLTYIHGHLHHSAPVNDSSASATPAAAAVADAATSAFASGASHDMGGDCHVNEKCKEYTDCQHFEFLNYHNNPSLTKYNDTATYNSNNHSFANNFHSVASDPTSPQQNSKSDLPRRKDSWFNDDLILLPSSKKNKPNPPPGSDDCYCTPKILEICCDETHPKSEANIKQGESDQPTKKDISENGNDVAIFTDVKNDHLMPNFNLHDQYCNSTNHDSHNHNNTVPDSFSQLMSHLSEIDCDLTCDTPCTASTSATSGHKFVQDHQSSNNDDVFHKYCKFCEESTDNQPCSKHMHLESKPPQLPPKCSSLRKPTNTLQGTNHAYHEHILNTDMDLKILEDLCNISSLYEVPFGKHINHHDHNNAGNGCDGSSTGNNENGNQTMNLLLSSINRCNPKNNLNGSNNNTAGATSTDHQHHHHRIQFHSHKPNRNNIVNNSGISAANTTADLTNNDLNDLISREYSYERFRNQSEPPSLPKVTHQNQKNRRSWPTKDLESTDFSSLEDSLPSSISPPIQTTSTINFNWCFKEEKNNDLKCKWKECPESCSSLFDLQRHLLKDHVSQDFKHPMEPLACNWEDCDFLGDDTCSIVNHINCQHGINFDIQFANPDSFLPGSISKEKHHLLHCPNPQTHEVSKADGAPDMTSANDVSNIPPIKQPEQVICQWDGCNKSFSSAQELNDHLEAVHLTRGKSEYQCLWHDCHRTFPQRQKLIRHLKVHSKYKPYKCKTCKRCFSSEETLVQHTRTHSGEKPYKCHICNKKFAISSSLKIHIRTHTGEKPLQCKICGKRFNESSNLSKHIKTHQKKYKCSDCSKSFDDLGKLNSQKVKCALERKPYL
# assay-text: PBM E-score (8-mer binding enrichment) (E-score (-0.5 to 0.5)); higher = stronger / more preferred TF binding
# condition-details: protein concentration: 200 nM; construct: GST-full length
The full ranking holds about 33,000 sequences; the median of “E-score (-0.5 to 0.5)” is about -0.021, and the highest 2% start at about 0.32. Only a selection was taken, and the highest values are over-represented in it overall.
quantity-name: PBM E-score

[[record]]
chain_sequence = "GAATGGTA"
quantity_name = "PBM E-score"
test_result = 0.202

[[record]]
chain_sequence = "CCCCATAG"
quantity_name = "PBM E-score"
test_result = 0.201

[[record]]
chain_sequence = "AAGGTCAC"
quantity_name = "PBM E-score"
test_result = 0.417

[[record]]
chain_sequence = "GGGTACAC"
quantity_name = "PBM E-score"
test_result = 0.141

[[record]]
chain_sequence = "CAGGTCAG"
quantity_name = "PBM E-score"
test_result = 0.0791

[[record]]
chain_sequence = "GGTTATAC"
quantity_name = "PBM E-score"
test_result = 0.461

[[record]]
chain_sequence = "CTCGAAGA"
quantity_name = "PBM E-score"
test_result = 0.0261

[[record]]
chain_sequence = "GGTTATAA"
quantity_name = "PBM E-score"
test_result = 0.471

[[record]]
chain_sequence = "GAAGGGTC"
quantity_name = "PBM E-score"
test_result = 0.211

[[record]]
chain_sequence = "AAGGGGTC"
quantity_name = "PBM E-score"
test_result = 0.264

[[record]]
chain_sequence = "GTAACAAC"
quantity_name = "PBM E-score"
test_result = 0.234

[[record]]
chain_sequence = "CGTTATAA"
quantity_name = "PBM E-score"
test_result = 0.247

[[record]]
chain_sequence = "ATCTTTAA"
quantity_name = "PBM E-score"
test_result = 0.206

[[record]]
chain_sequence = "CCAAAAGG"
quantity_name = "PBM E-score"
test_result = 0.337

[[record]]
chain_sequence = "CAGGAGGG"
quantity_name = "PBM E-score"
test_result = 0.143

[[record]]
chain_sequence = "CTGGAGGA"
quantity_name = "PBM E-score"
test_result = -0.216

[[record]]
chain_sequence = "ATTGACTC"
quantity_name = "PBM E-score"
test_result = 0.049

[[record]]
chain_sequence = "ACCGTAAT"
quantity_name = "PBM E-score"
test_result = 0.0558

[[record]]
chain_sequence = "ACGGTTAG"
quantity_name = "PBM E-score"
test_result = 0.223


====

# target-of-assay: Zap1 (UniProt P47043)
# Sequence: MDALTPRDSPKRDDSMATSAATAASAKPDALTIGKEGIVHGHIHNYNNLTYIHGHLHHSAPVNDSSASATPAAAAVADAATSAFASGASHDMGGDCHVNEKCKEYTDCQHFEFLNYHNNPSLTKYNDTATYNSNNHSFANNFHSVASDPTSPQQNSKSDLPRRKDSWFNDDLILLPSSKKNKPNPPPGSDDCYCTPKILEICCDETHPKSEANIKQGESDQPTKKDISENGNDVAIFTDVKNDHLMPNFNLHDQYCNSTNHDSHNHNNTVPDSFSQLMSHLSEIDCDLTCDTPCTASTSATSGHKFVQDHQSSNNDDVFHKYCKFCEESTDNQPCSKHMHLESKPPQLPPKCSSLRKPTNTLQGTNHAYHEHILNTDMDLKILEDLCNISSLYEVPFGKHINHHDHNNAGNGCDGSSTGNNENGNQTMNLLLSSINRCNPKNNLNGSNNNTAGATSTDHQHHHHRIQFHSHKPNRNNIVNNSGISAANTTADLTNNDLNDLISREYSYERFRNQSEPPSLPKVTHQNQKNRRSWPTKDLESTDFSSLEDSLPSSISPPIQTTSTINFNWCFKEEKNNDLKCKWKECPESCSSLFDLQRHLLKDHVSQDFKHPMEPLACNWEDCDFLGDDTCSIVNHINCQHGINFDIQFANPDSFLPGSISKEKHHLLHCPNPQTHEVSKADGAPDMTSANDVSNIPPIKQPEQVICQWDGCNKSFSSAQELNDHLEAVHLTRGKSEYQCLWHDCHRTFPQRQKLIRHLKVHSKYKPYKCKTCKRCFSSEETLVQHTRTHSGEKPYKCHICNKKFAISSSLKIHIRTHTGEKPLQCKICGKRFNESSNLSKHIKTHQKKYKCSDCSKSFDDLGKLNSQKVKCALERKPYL
# assay-text: PBM E-score (8-mer binding enrichment) (E-score (-0.5 to 0.5)); higher = stronger / more preferred TF binding
# condition-details: protein concentration: 200 nM; construct: GST-full length
In all, about 33,000 sequences were measured (“E-score (-0.5 to 0.5)”: median about -0.021, highest 2% from about 0.32 on). This excerpt belongs to a sample that is enriched for the highest values.
quantity-name: PBM E-score

[[record]]
chain_sequence = "AACTAACG"
test_result = 0.166

[[record]]
chain_sequence = "TAGTGCCA"
test_result = -0.18

[[record]]
chain_sequence = "ACAGTAGG"
test_result = -0.209

[[record]]
chain_sequence = "GAAAGCGC"
test_result = -0.115

[[record]]
chain_sequence = "ATCTATCG"
test_result = -0.167

[[record]]
chain_sequence = "CTGATGGA"
test_result = -0.254

[[record]]
chain_sequence = "ACAAAAGC"
test_result = -0.0458

[[record]]
chain_sequence = "AGACGGGC"
test_result = -0.112

[[record]]
chain_sequence = "TCAGCTCA"
test_result = -0.00847

[[record]]
chain_sequence = "AGATTTGC"
test_result = -0.0426

[[record]]
chain_sequence = "AGGTAGTA"
test_result = 0.337

